# target.entity: KDM4C (Homo sapiens)
# Construct: Full length of KDM5B and KDM4C protein were purchased from Active Motif; purchased Active Motif 31858
# assay.comment: KDM4C AlphaScreen assay
# Type: biochemical
# measurement.context: AlphaScreen; full length KDM4C 0.2 nM; biotinylated H3K9Me3 peptide 3 nM; 30 minutes at room temperature
parameter: IC50 (nM)

[a] CC(C)c1c(O)nc(-n2ccnc2)nc1-c1cnn(C2CC2)c1
[b] CC(C)c1c(O)nc(-n2ccnc2-c2ccccn2)nc1-c1cnn(C(C)C)c1
[c] CC(C)c1c(O)nc(-n2ccnc2)nc1CCc1cccnc1 [Example 10b]
Arrange the above in rising order of IC50. Give your ranking as a list of the labels in the requested order. a, c, b

----------
# target.entity: KDM4C (Homo sapiens, UniProt Q9H3R0)
# Construct: Full length of KDM5B and KDM4C protein were purchased from Active Motif; purchased Active Motif 31858
# Sequence (Q9H3R0 whole entry): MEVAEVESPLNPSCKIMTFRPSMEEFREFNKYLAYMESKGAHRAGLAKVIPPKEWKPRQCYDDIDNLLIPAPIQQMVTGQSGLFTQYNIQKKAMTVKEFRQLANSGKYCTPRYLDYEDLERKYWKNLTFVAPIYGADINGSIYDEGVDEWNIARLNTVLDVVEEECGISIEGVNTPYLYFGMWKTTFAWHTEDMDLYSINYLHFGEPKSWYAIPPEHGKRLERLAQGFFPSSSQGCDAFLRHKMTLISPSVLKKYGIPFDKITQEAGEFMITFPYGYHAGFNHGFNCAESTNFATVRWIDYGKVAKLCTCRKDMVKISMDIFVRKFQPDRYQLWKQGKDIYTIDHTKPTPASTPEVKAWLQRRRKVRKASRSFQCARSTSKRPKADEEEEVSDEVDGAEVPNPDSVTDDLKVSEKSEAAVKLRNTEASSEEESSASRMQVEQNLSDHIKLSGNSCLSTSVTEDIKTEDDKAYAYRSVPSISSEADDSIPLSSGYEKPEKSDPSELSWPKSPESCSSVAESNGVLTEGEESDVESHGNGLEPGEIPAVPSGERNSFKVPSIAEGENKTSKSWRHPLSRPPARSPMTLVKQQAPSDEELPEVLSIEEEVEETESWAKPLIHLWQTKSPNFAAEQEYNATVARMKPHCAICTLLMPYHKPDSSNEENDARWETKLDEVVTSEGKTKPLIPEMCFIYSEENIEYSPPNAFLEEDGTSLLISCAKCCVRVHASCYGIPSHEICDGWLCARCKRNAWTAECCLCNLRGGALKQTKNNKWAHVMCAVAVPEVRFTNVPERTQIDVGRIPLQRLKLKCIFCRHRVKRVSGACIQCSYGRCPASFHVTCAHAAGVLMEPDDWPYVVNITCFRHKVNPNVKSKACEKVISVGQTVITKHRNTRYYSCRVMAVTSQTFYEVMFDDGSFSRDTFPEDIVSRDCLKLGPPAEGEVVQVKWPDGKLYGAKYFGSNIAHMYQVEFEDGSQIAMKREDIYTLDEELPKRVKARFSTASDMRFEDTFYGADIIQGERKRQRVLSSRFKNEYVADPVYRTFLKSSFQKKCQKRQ
# assay.comment: KDM4C AlphaScreen assay
# Type: biochemical
# measurement.context: AlphaScreen; full length KDM4C 0.2 nM; biotinylated H3K9Me3 peptide 3 nM; 30 minutes at room temperature
pIC50: −log10 of the molar value.
parameter: pIC50

Consider the reported pIC50 for these compounds:
[[record]]
compound = "CC(C)c1c(O)nc(-n2ccnc2)nc1-c1cnn(CC(=O)NC(CO)C(C)C)c1 (centres unmarked) [Example 115]"
parameter = "pIC50"
result_value = 5.90

[[record]]
compound = "CC(C)Cn1cc(-c2nc(-n3ccnc3)nc(O)c2C(C)C)cn1 [Example 65]"
parameter = "pIC50"
result_value = 6.03

[[record]]
compound = "CC(C)c1c(O)nc(-n2ccnc2)nc1-c1cnn(CC(=O)N2CCCC(C#N)C2)c1 (centres unmarked) [Example 103]"
parameter = "pIC50"
result_value = 6.04

[[record]]
compound = "CC(C)c1c(O)nc(-n2ccnc2)nc1-c1cnn(CC(=O)NCc2ccn(C)n2)c1 [Example 106]"
parameter = "pIC50"
result_value = 6.06

[[record]]
compound = "CC(C)CCn1cc(-c2nc(-n3ccnc3)nc(O)c2C(C)C)cn1 [Example 73]"
parameter = "pIC50"
result_value = 5.87


[I] Cc1nc(-c2cncs2)nc(O)c1C(C)C [Example 155]
[II] CC(C)c1c(O)nc(-n2ccnc2)nc1-c1cnn(CC(=O)NCC2CN(C)CCO2)c1 (centres unmarked) [Example 97]
Of I and II , whose reported pIC50 is the larger number? Give the label of your selection. II
(II: 6.21, I: 5.78)

----------
# target.entity: KDM4C (Homo sapiens, UniProt Q9H3R0)
# Construct: Full length of KDM5B and KDM4C protein were purchased from Active Motif; purchased Active Motif 31858
# assay.comment: KDM4C AlphaScreen assay
# Assay type: biochemical
# measurement.context: AlphaScreen; full length KDM4C 0.2 nM; biotinylated H3K9Me3 peptide 3 nM; 30 minutes at room temperature
parameter: IC50 (µM)

[[record]]
compound = "CC(C)c1c(O)nc(-n2ccnc2)nc1-c1cnn(Cc2ccccn2)c1"
parameter = "IC50"
result_value = 2.01

[[record]]
compound = "CC(C)c1c(O)nc(-n2ccnc2)nc1-c1cnn(CCO)c1"
parameter = "IC50"
result_value = 3.49

[[record]]
compound = "CNCCN(C)C(=O)Cn1cc(-c2nc(-n3ccnc3)nc(O)c2C(C)C)cn1"
parameter = "IC50"
result_value = 0.278

[[record]]
compound = "CC(C)c1c(O)nc(-n2ccnc2)nc1OCC(=O)O"
parameter = "IC50"
result_value = 10.3

[[record]]
compound = "CC(CN1CCOCC1)Oc1nc(-n2ccnc2)nc(O)c1C(C)C (stereo not drawn)"
parameter = "IC50"
result_value = 5.56

[[record]]
compound = "CC(C)c1c(O)nc(-n2ccnc2)nc1-c1cnn(CC(=O)N2CCC(O)CC2)c1"
parameter = "IC50"
result_value = 1.85

[[record]]
compound = "CC(C)c1c(O)nc(-n2ccnc2)nc1OC1CCOC1 (stereo not drawn)"
parameter = "IC50"
result_value = 2.05

[[record]]
compound = "Cc1nc(-c2cn[nH]c2)nc(O)c1C(C)C"
parameter = "IC50"
result_value = 15.8


[a] Cc1nc(-c2cncn2C)nc(O)c1C(C)C
[b] CC(C)c1c(O)nc(-n2ccnc2)nc1-c1cnn(CCC#N)c1
# compare IC50 for a vs b ; return the one with the smaller value Indicate which entry you chose by stating its label. b
(b: 0.815 µM, a: 5.68 µM)
